The origin of these recorded values is patent US20260069689A1.

target: SARS-COV-2 RBD-MMH (SARS-COV-2 RBD extracellular domain with C-terminal myc-myc-hexahistidine tag) (SARS-CoV-2)
In this section we review reported t½ at pH 6.0 values for a set of binders.
readout_kind: t½ at pH 6.0 (min)

[[record]]
binder = "mAb15159 (antibody, V domains shown) VH: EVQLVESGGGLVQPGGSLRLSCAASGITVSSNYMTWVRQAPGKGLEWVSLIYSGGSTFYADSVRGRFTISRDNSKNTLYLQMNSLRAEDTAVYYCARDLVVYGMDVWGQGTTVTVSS VL: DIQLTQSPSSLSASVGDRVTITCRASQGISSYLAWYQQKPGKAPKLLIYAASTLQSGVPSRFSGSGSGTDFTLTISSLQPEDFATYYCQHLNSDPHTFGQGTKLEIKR"
experimental_result = 28.1

[[record]]
binder = "mAb14289 (antibody, V domains shown) VH: QVQLVQSGPEVKKPGASVKVSCKASGYTFTSYAISWVRQAPGQGLEWMGWISAYNGNTNYAQKLQGRVTMTTDTFTSTAYMELRSLRSDDTAVYYCAVPADHITFDYWGQGTLVTVSS VL: EIVLTQSPGTLSLSPGERATLSCRASQSVSSYLAWYQQKPGQAPRLLIHGASSRATGIPDRFSGSGSGTDFTLTISRLEPEDFAVYYCQQYGSSFLTFGGGTKVEIKR"
experimental_result = 4.2

[[record]]
binder = "mAb14281 (antibody, V domains shown) VH: QVQLVQSGADVKKPGASVKVSCKTSGYIFTGYYIHWVRQAPGQGLEWMGWINPNSGGTNSAQKFQGRVTMTRDTSISTVYMELSRLRSDDTAVYYCAKSNSFSVLDYNFDYWGQGTLVTVSS VL: SSELTQDPAVSVALGQTVRITCQGDSLRSYYASWYQQKPGQAPVLVIYDKNNRPSGIPDRFSGSSSGNTASLTITGAQAEDEADYYCNSRDSSRNHLVVFGGGTKLTVLG"
experimental_result = 1.6

